Values from the NIST ThermoML archive (doi:10.1016/j.jct.2017.07.018)

settings: 420 K; Liquid; Gas chromatography

{"compound": "C[C@@H]1CC[C@H]2C(C)(C)[C@H]3C[C@@]12CC[C@@]3(C)O [(+)-cedrol]", "value_units": "kPa", "vapor or sublimation pressure": 0.89}
{"compound": "C=CC(C)(O)CC/C=C(/C)CCC=C(C)C (centres undefined) [(Z)-3,7,11-trimethyldodeca-1,6,10-trien-3-ol]", "value_units": "kPa", "vapor or sublimation pressure": 1.3}
{"compound": "C=CC(C)(O)CC/C=C(\\C)CCC=C(C)C (centres undefined) [(E)-3,7,11-trimethyldodeca-1,6,10-trien-3-ol]", "value_units": "kPa", "vapor or sublimation pressure": 1.1}
{"compound": "OC12CC3CC(CC(C3)C1)C2", "value_units": "kPa", "vapor or sublimation pressure": 5.4}

====

conditions: 298.15 K; Liquid; Gas chromatography
Quick reference for vapor or sublimation pressure among some compounds

{"compound": "C[C@@H]1CC[C@H]2C(C)(C)[C@H]3C[C@@]12CC[C@@]3(C)O [(+)-cedrol]", "vapor or sublimation pressure, kPa": "7e-05"}
{"compound": "C=CC(C)(O)CC/C=C(/C)CCC=C(C)C (centres undefined) [(Z)-3,7,11-trimethyldodeca-1,6,10-trien-3-ol]", "vapor or sublimation pressure, kPa": "7.5e-05"}
{"compound": "C=CC(C)(O)CC/C=C(\\C)CCC=C(C)C (centres undefined) [(E)-3,7,11-trimethyldodeca-1,6,10-trien-3-ol]", "vapor or sublimation pressure, kPa": "6e-05"}
{"compound": "OC12CC3CC(CC(C3)C1)C2 [1-adamantanol]", "vapor or sublimation pressure, kPa": 0.0019}

====

Recorded vapor or sublimation pressure by entry
details: 450 K; Liquid; Gas chromatography
recorded_endpoint: vapor or sublimation pressure (kPa)

{"compound": "C=CC(C)(O)CC/C=C(\\C)CCC=C(C)C (centres undefined) [(E)-3,7,11-trimethyldodeca-1,6,10-trien-3-ol]", "result": 4.3}
{"compound": "C=CC(C)(O)CC/C=C(/C)CCC=C(C)C (centres undefined) [(Z)-3,7,11-trimethyldodeca-1,6,10-trien-3-ol]", "result": 4.9}
{"compound": "OC12CC3CC(CC(C3)C1)C2", "result": 16}
{"compound": "C[C@@H]1CC[C@H]2C(C)(C)[C@H]3C[C@@]12CC[C@@]3(C)O [(+)-cedrol]", "result": 3.1}

====

details: 360 K; Liquid; Gas chromatography
As shown below, each of these compounds has a reported vapor or sublimation pressure value.

{"compound": "OC12CC3CC(CC(C3)C1)C2", "vapor or sublimation pressure (kPa)": 0.28}
{"compound": "C=CC(C)(O)CC/C=C(\\C)CCC=C(C)C (centres undefined) [(E)-3,7,11-trimethyldodeca-1,6,10-trien-3-ol]", "vapor or sublimation pressure (kPa)": 0.028}
{"compound": "C[C@@H]1CC[C@H]2C(C)(C)[C@H]3C[C@@]12CC[C@@]3(C)O [(+)-cedrol]", "vapor or sublimation pressure (kPa)": 0.027}
{"compound": "C=CC(C)(O)CC/C=C(/C)CCC=C(C)C (centres undefined) [(Z)-3,7,11-trimethyldodeca-1,6,10-trien-3-ol]", "vapor or sublimation pressure (kPa)": 0.034}
